Experiment: Cytotoxicity against human MT4 cells assessed as reduction in cell viability measured after 5 days by MTT assay
Settings: MT4 cells
Please respond with reported CC50 at 120 h for every item in the list.

Could you share which CC50 at 120 h value was measured for `Cc1cc(-c2cnc(Nc3ccc(C#N)cc3)nc2Nc2c(C)cc(-c3ccncc3)cc2C)cnc1F` ?
> 249 µM

Quick one: CC50 at 120 h of `N#Cc1ccc(Nc2ncc(-c3ccncc3)c(Nc3c(F)cc(-c4ccncc4)cc3F)n2)cc1` ?
> 41.9 µM

Data request, read-out CC50 at 120 h, for `Cc1cc(-c2ccncc2)cc(C)c1Nc1nc(Nc2ccc(C#N)cc2)ncc1-c1cccs1`
> 264 µM

Give its CC50 at 120 h value. Item: `Cc1cc(-c2ccncc2)cc(C)c1Nc1nc(Nc2ccc(C#N)cc2)ncc1-c1cn[nH]c1`
> 273 µM

====

Assay: Selectivity index, ratio of CC50 for human MT4 cells to EC50 for wild type HIV-1 IIIB infected in human MT4 cellS
Conditions: MT4 cells
Record form. Attribute: selectivity ratio. Fill in for each entry.

What selectivity ratio value was documented for this compound, `COc1ncc(-c2cnc(Nc3ccc(C#N)cc3)nc2Nc2c(F)cc(-c3ccncc3)cc2F)cc1F` ?
> 4810

GET /values?readout=selectivity ratio&item= `Cc1cc(-c2ccncc2)cc(C)c1Nc1nc(Nc2ccc(C#N)cc2)ncc1-c1cncc(F)c1`
> 6000

Query (compound): `N#Cc1ccc(Nc2ncc(-c3cccnc3)c(Nc3c(F)cc(-c4ccncc4)cc3F)n2)cc1` ; field requested: selectivity ratio
> 2250

I'd like to know its selectivity ratio. The compound in question is `Cc1cc(-c2cnc(Nc3ccc(C#N)cc3)nc2Nc2c(C)cc(-c3ccncc3)cc2C)cnc1Cl`
> 5560

Looking for the measured selectivity ratio of `Cc1cc(-c2ccncc2)cc(C)c1Nc1nc(Nc2ccc(C#N)cc2)ncc1-c1ccc(C(F)(F)F)nc1` , can you help?
> 822

Given `COc1cc(-c2cnc(Nc3ccc(C#N)cc3)nc2Nc2c(F)cc(-c3ccncc3)cc2F)ccn1` , state its recorded selectivity ratio.
> 12400

Report selectivity ratio for `Cc1cc(-c2ccncc2)cc(C)c1Nc1nc(Nc2ccc(C#N)cc2)ncc1-c1ccc(N(C)C)nc1` please.
> 350

What value of selectivity ratio has been recorded for this entry: `Cc1cc(-c2cnc(Nc3ccc(C#N)cc3)nc2Nc2c(F)cc(-c3ccncc3)cc2F)cnc1Cl`
> 1560

====

Assay: Cytotoxicity against human MT4 cells assessed as reduction in cell viability measured after 5 days by MTT assay
Conditions: MT4 cells
Provide the reported CC50 at 120 h of each item.

Fill blank: measured CC50 at 120 h of the molecule `Cc1ccnc2c1NC(=O)c1cccnc1N2C1CC1` is ____.
> 15 µM

Endpoint output: CC50 at 120 h of `Cc1cc(-c2ccncc2)cc(C)c1Nc1nc(Nc2ccc(C#N)cc2)ncc1-c1ccc(Cl)nc1` . Value?
3.98 µM

Look up CC50 at 120 h: `N#Cc1ccc(Nc2ncc(-c3ccco3)c(Nc3c(F)cc(-c4ccncc4)cc3F)n2)cc1`
> 42.9 µM

# get_value(readout='CC50 at 120 h', item= `N#Cc1ccc(Nc2ncc(-c3ccnc(Cl)c3)c(Nc3c(F)cc(-c4ccncc4)cc3F)n2)cc1` )
103 µM

I have this molecule here, `Cc1cc(-c2ccncc2)cc(C)c1Nc1nc(Nc2ccc(C#N)cc2)ncc1-c1ccncc1` , and I need its recorded CC50 at 120 h.
> 266 µM

Suppose we examine the molecule `N#Cc1ccc(Nc2ncc(-c3ccc(Cl)nc3)c(Nc3c(F)cc(-c4ccncc4)cc3F)n2)cc1` ; what CC50 at 120 h value has been reported?
196 µM

# query: CC50 at 120 h of entry `Cc1cc(-c2cnc(Nc3ccc(C#N)cc3)nc2Nc2c(C)cc(-c3ccncc3)cc2C)cnc1Cl`
> 242 µM

So what does the record say about CC50 at 120 h for `Cc1cc(/C=C/C#N)cc(C)c1Nc1ccnc(Nc2ccc(C#N)cc2)n1` ?
> 6.35 µM

GET /values?readout=CC50 at 120 h&item= `Cc1ccc(-c2cnc(Nc3ccc(C#N)cc3)nc2Nc2c(F)cc(-c3ccncc3)cc2F)cn1`
194 µM

Record request: CC50 at 120 h value, item `N#Cc1ccc(Nc2ncc(-c3ccc(N)nc3)c(Nc3c(F)cc(-c4ccncc4)cc3F)n2)cc1`
143 µM

Can you share its CC50 at 120 h? I mean this molecule: `COc1ncc(-c2cnc(Nc3ccc(C#N)cc3)nc2Nc2c(C)cc(-c3ccncc3)cc2C)cc1N`
81.1 µM

Dear colleague, I am looking for the recorded CC50 at 120 h of the following molecule: `Cc1cc(-c2ccncc2)cc(C)c1Nc1nc(Nc2ccc(C#N)cc2)ncc1-c1ccsc1`
> 264 µM

Form field: reported CC50 at 120 h of `COc1ncc(-c2cnc(Nc3ccc(C#N)cc3)nc2Nc2c(F)cc(-c3ccncc3)cc2F)cc1F`
> 238 µM

May I ask what CC50 at 120 h has been recorded for `COc1ccc(-c2cnc(Nc3ccc(C#N)cc3)nc2Nc2c(F)cc(-c3ccncc3)cc2F)cn1` ?
169 µM

====

Assignment: determine reported pEC50 for the given molecules.
System: Human immunodeficiency virus 1
Test: Antiviral activity against HIV-1 harboring RT Y188L mutant infected in human MT4 cells assessed as protection against virus-induced cytopathic effect incubated for 5 days by MTT assay
Assay type: functional, organism-based
Details: Human immunodeficiency virus 1, MT4, 120 h
Kindly note that pEC50 refers to -log10 of the concentration in mol/L and answer with the value alone.

Which pEC50 value belongs to `Cc1cc(C#N)cc(C)c1Oc1nc(Nc2ccc(C#N)cc2)nc(N)c1Br` ?
7.77

# input molecule: `Cc1cc(-c2ccncc2)cc(C)c1Nc1nc(Nc2ccc(C#N)cc2)ncc1-c1ccnc(Cl)c1` ; wanted: its pEC50
7.08

Would you mind telling me what pEC50 value was observed for `Cc1cc(-c2ccncc2)cc(C)c1Nc1nc(Nc2ccc(C#N)cc2)ncc1-c1ccc(F)nc1` ?
7.12

Item under review: `COc1ncc(-c2cnc(Nc3ccc(C#N)cc3)nc2Nc2c(C)cc(-c3ccncc3)cc2C)cc1N` . Reported pEC50?
7.18

Please report the recorded pEC50 for `Cc1ccc(-c2cnc(Nc3ccc(C#N)cc3)nc2Nc2c(C)cc(-c3ccncc3)cc2C)cn1` .
7.27

// data source = ChEMBL document CHEMBL6120973
